These data points were gathered from patent US11845730B2.

- testedSystem: human TRPV1 (Homo sapiens (Human), UniProt Q8NER1)
- Sequence (Q8NER1 whole entry): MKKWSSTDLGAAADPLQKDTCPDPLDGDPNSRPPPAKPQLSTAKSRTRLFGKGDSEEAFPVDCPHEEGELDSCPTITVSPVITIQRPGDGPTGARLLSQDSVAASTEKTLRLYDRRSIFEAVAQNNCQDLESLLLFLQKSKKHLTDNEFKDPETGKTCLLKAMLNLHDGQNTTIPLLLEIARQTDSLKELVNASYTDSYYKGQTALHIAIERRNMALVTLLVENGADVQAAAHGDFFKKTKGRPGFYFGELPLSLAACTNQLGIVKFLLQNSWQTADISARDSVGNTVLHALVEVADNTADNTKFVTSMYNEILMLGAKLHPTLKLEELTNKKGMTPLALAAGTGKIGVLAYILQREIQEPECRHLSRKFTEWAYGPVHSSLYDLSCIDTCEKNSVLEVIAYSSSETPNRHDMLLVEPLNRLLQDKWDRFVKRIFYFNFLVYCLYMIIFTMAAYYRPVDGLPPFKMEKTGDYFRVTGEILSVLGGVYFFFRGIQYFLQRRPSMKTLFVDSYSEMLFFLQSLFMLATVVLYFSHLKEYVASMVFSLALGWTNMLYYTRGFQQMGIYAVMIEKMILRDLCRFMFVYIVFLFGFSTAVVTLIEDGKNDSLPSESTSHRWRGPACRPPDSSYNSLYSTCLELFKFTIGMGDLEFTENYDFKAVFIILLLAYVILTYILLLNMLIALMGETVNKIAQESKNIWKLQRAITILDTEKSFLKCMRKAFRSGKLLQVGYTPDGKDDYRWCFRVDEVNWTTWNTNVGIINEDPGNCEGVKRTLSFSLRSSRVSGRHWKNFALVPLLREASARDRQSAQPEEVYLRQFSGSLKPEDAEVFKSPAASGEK
- runConditions: read-out: IC50 (μM), antagonist effect against human TRPV1; CHO cells expressing human TrpV1; stimulated with 2.5 μM NADA (EC80); mean of at least three independent experiments
Where a name gives a salt, the structure may show the parent alone.
Listing: IC50 of selected compounds
# output: numeric value plus its unit

// solved cases for IC50 follow
compound | IC50
Fc1ccc2cnccc2c1CN[C@H]1C[C@H](Oc2cccc(OC(F)F)c2)C1 [Example 29, HCl] | 0.0623 µM
CC(=O)NCC(O)c1cc(F)c(CN[C@H]2C[C@H](Oc3ccc(F)c(C(F)(F)F)c3)C2)c2ccncc12 (stereo partly shown) | 0.402 µM
Fc1cc(O[C@H]2C[C@H](NCc3c(F)ccc4cnccc34)C2)ccc1OC(F)(F)F [Example 93, HCl] | 0.0826 µM

# input Consider the compound shown here: `Fc1ccc(O[C@H]2C[C@H](NCc3c(F)ccc4cncnc34)C2)cc1C(F)(F)F` What is its recorded IC50?
# output 0.0603 µM

# input Consider the compound shown here: `Fc1ccc(CO[C@H]2C[C@H](NCc3c(F)ccc4cnccc34)C2)cc1F` What is its recorded IC50?
# output 0.77 µM

# input Consider the compound shown here: Fc1ccc2cnccc2c1CN[C@H]1C[C@H](Oc2ccc3c(c2)OC(F)(F)C(F)(F)O3)C1 [Example 39, HCl] What is its recorded IC50?
# output 0.0108 µM

# input Consider the compound shown here: `Fc1ccc2cnccc2c1CN[C@H]1C[C@H](Oc2ccc(C(F)F)nc2)C1` What is its recorded IC50?
# output 1.38 µM

# input Consider the compound shown here: `Fc1ccc(O[C@H]2C[C@H](NCc3c(F)ccc4cnccc34)C2)c(F)c1` What is its recorded IC50?
# output 0.108 µM

# input Consider the compound shown here: `Nc1cc2c(CN[C@H]3C[C@H](Oc4ccc(F)c(C(F)(F)F)c4)C3)cccc2cn1` What is its recorded IC50?
# output 0.0637 µM

# input Consider the compound shown here: `Cc1cc(O[C@H]2C[C@H](NCc3c(F)ccc4cnccc34)C2)cc(C(F)(F)F)n1` What is its recorded IC50?
# output 1.65 µM

# input Consider the compound shown here: `FC(F)(F)c1ccc(O[C@H]2C[C@H](NCc3cccc4cnccc34)C2)cn1` What is its recorded IC50?
# output 2.69 µM

# input Consider the compound shown here: Fc1ccc2cnccc2c1CN[C@H]1C[C@H](Oc2ccc(C3CC3)cc2)C1 [Example 85, HCl] What is its recorded IC50?
# output 0.155 µM

# input Consider the compound shown here: `Fc1ccc(O[C@H]2C[C@H](NCc3c(F)ccc4cnccc34)C2)cc1OC(F)F` What is its recorded IC50?
# output 0.0806 µM

# input Consider the compound shown here: Nc1cc2c(CN[C@H]3C[C@H](Oc4ccc(F)c(C(F)(F)F)c4)C3)c(F)cc(CO)c2cn1 [Example 18, HCl] What is its recorded IC50?
# output 0.00163 µM

# input Consider the compound shown here: Fc1ccc(NC2CC(NCc3c(F)ccc4cnccc34)C2)cc1C(F)(F)F (stereo not shown) What is its recorded IC50?
# output 0.0986 µM

# input Consider the compound shown here: Fc1ccc(O[C@H]2C[C@H](NCc3cccc4cnccc34)C2)cc1C(F)(F)F [Example 22, HCl] What is its recorded IC50?
# output 0.436 µM

# input Consider the compound shown here: `Fc1cc(O[C@H]2C[C@H](NCc3c(F)ccc4cnccc34)C2)ccc1C(F)F` What is its recorded IC50?
# output 0.0147 µM

# input Consider the compound shown here: `CCOC(=O)c1cc(O[C@H]2C[C@H](NCc3c(F)ccc4cnccc34)C2)ccc1C(F)(F)F` What is its recorded IC50?
# output 0.32 µM

# input Consider the compound shown here: Fc1ccc2cnccc2c1CN[C@H]1C[C@H](Oc2ccc3ccccc3c2)C1 [Example 31, HCl] What is its recorded IC50?
# output 0.264 µM

# input Consider the compound shown here: Fc1ccc2cnccc2c1CN[C@H]1C[C@H](Oc2cccc(C(F)(F)F)c2)C1 [Example 71, HCl] What is its recorded IC50?
# output 0.0316 µM

# input Consider the compound shown here: Fc1ccc(S[C@H]2C[C@H](NCc3c(F)ccc4cnccc34)C2)cc1C(F)(F)F [Example 100, HCl] What is its recorded IC50?
# output 0.074 µM

# input Consider the compound shown here: N#Cc1ccc(O[C@H]2C[C@H](NCc3c(F)ccc4cnccc34)C2)cc1C(F)(F)F [Example 86, HCl] What is its recorded IC50?
# output 0.0693 µM

# input Consider the compound shown here: `CC(C)(C)c1c(F)cc(O[C@H]2C[C@H](NCc3c(F)cc(CO)c4cnccc34)C2)cc1F` What is its recorded IC50?
# output 0.0188 µM
